test system: HaCaT; assay: Cytotoxicity against human HaCaT cells assessed as LDH release at 2 uM after 4 hrs by UV method; format: cell-based
Collected Activity values appear next to each entry.
Numbers only here, please. The scale is mU/ml.

Molecule: N#Cc1cc2c(o1)C(=O)c1ccccc1C2=O
Unit Spec: mU/ml
Activity: 181
//
Molecule: O=C(c1ccccc1)c1cc2c(o1)C(=O)c1ccccc1C2=O
Unit Spec: mU/ml
Activity: 318
//
Molecule: CCC(=O)c1cc2c(o1)C(=O)c1ccccc1C2=O
Unit Spec: mU/ml
Activity: 270
//
Molecule: O=C(c1cc2c(o1)C(=O)c1ccccc1C2=O)c1cccs1
Unit Spec: mU/ml
Activity: 169

Item CC(=O)c1cc2c(o1)C(=O)c1ccccc1C2=O [NAPABUCASIN] with HaCaT - Activity? 255

Item COC(=O)c1cc2c(o1)C(=O)c1ccccc1C2=O with HaCaT - Activity? 190

Item CC1(C)CCC2=C(O1)c1ccccc1C(=O)C2=O [LAPACHONE] with HaCaT - Activity? 268

----------
molecular target: UniProt:Q3B792; test: Activity of human recombinant NQO-1 assessed as rate of superoxide generation measuring SOD-inhibitable reduction of succinoylated cytochrome c per unit enzyme at 25 umol/ml by spectrophotometry in presence of catalase and DTPA (reference value: 0.2 +/- 0.1 micomol/L/min)
Sequence (Q3B792 as listed by the source): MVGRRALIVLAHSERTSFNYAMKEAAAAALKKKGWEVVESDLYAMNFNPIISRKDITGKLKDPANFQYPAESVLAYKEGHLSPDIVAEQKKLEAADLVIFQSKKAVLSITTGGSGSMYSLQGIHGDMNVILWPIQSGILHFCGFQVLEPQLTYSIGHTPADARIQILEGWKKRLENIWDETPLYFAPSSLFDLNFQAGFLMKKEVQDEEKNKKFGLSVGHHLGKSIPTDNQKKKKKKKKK
Measured Metric: Activity (µmol/L/min)
Numbers only here, please. The scale is µmol/L/min.

Below, each entry is followed by its recorded Activity result.
Compound: CC1=CC(=O)c2ccccc2C1=O [MENADIONE]
Measured Metric: Activity
Meas Value: 1
--
Compound: O=C1c2ccccc2C(=O)c2occc21
Measured Metric: Activity
Meas Value: 0.4
--
Compound: CCc1noc(-c2cc3c(o2)C(=O)c2ccccc2C3=O)n1
Measured Metric: Activity
Meas Value: 1.9

Given CC(=O)c1cc2c(o1)C(=O)c1ccccc1C2=O [NAPABUCASIN] , state its recorded Activity. 1.4

Given Cc1cc2c(o1)C(=O)c1ccccc1C2=O , state its recorded Activity. 0.2

----------
test system: HaCaT; experiment: Cytotoxicity against human HaCaT cells assessed as LDH release at 2 uM after 4 hrs by UV method; type: cell-based
Collected Activity values appear next to each entry.
Numbers only here, please. The scale is mU/ml.

Structure: CCOC(=O)C(=Cc1cc2c(o1)C(=O)c1ccccc1C2=O)C(=O)OCC
Meas Value: 186
//
Structure: CCC(=O)c1cc2c(OC(C)=O)c3ccccc3c(OC(C)=O)c2o1
Meas Value: 185
//
Structure: CCN(CC)C(=O)c1cc2c(o1)C(=O)c1ccccc1C2=O
Meas Value: 226

Now for the compound whose Activity we want.
Given CCc1noc(-c2cc3c(o2)C(=O)c2ccccc2C3=O)n1 , state its recorded Activity. 157

----------
test system: HaCaT; assay: Cytotoxicity against human HaCaT cells assessed as LDH release at 2 uM after 4 hrs by UV method; assay type: cell-based
true if Activity is below 200 mU/ml. false if not; exact matches included in false.

Is it true that Activity reported for O=C(c1ccco1)c1cc2c(o1)C(=O)c1ccccc1C2=O is less than 200 mU/ml? true

Is it true that Activity reported for CCOC(=O)c1cc2c(o1)C(=O)c1ccccc1C2=O is less than 200 mU/ml? true

Is it true that Activity reported for CC(=O)Oc1c2ccccc2c(OC(C)=O)c2oc(C(=O)c3ccccc3)cc12 is less than 200 mU/ml? true

Is it true that Activity reported for O=C1c2ccccc2C(=O)c2oc(-c3nnn[nH]3)cc21 is less than 200 mU/ml? false

Is it true that Activity reported for O=C1c2c(O)cccc2Cc2cccc(O)c21 [ANTHRALIN] is less than 200 mU/ml? false

Is it true that Activity reported for O=Cc1cc2c(o1)C(=O)c1ccccc1C2=O is less than 200 mU/ml? true
